TARGET SYSTEM: human recombinant serotonin (5-Hydroxytryptamine) 5-HT6 receptor (Homo sapiens)
Construct: expressed in transfected cells; host or cells: human HeLa cells
Sequence (P50406 whole entry): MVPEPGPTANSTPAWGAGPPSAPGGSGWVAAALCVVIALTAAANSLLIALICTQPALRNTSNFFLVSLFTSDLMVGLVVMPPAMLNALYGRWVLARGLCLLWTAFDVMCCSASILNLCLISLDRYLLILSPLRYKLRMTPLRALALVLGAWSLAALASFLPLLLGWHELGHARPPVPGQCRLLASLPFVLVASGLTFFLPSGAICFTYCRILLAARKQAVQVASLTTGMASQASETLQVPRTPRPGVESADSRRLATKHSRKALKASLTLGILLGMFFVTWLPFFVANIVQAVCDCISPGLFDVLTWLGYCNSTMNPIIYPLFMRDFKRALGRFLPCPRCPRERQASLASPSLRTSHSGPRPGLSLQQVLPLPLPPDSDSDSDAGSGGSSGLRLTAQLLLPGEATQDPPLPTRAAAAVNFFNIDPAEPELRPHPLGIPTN
TEST NAME: Serotonin 5-HT6 radioligand binding ([3H]LSD)
RUN CONDITIONS: compound at 1 μM; read-out: Serotonin (1 μM) 5-HT6, percent inhibition of specific binding
MEASUREMENT KIND: inhibition at 1 µM (%)

* CN1CCc2c(n(CCc3ccccc3F)c3ccccc23)CC1 | 103
* Cc1ccc2c(c1)c1c(n2/C=C/c2ccc(F)cc2)CCN(C)CC1 | 103
* CN1CCc2c(n(CC(C)(O)c3ccc(Cl)cc3)c3ccc(Cl)cc23)CC1 (stereo not drawn) | 83
* CN1CCc2c(n(CC(C)(O)c3ccc(F)cc3)c3ccc(Cl)cc23)CC1 (stereo not drawn) | 100
* CN1CCc2c(n(CC(O)c3ccccc3F)c3ccc(Cl)cc23)CC1 (stereo not drawn) | 101
* Cc1ccc2c(c1)c1c(n2CC(=O)N2CCCC2)CCN(C)CC1 | 2
* Cc1ccc2c(c1)c1c(n2CCc2ccncc2)CCN(C)CC1 | 82
* Cc1ccc2c(c1)c1c(n2CC(=O)OC2CCCC2)CCN(C)CC1 | 4
* Cc1ccc2c(c1)c1c(n2CCc2ccc(C(=O)O)nc2)CCN(C)CC1 | 4
* COc1ccc(C(O)Cn2c3c(c4cc(Cl)ccc42)CCN(C)CC3)cc1 (stereo not drawn) | 77
* CN1CCc2c(n(CCc3ccccn3)c3ccc(Cl)cc23)CC1 | 100
* Cc1ccc2c(c1)c1c(n2CCc2ccccn2)CCN(C)CC1 | 81
* COc1ccc(/C=C/n2c3c(c4cc(Cl)ccc42)CCN(C)CC3)cc1F | 93
* CN1CCc2c(n(CCc3ccncc3)c3ccc(Cl)cc23)CC1 | 93
* CN1CCc2c(n(/C=C/c3ccc(F)c(F)c3)c3ccc(Cl)cc23)CC1 | 102
* Cc1ccc(C(O)Cn2c3c(c4cc(Cl)ccc42)CCN(C)CC3)cn1 (stereo not drawn) | 36
* Cc1cncc(CCn2c3c(c4cc(Cl)ccc42)CCN(C)CC3)c1 | 92
* C/C(=C\n1c2c(c3cc(C)ccc31)CCN(C)CC2)c1ccc(Cl)c(Cl)c1 | 74

###

TARGET SYSTEM: human recombinant adrenergic α2B receptor (Homo sapiens)
Construct: expressed in transfected cells; host or cells: CHO-K1 cells
Sequence (P18089 1-450): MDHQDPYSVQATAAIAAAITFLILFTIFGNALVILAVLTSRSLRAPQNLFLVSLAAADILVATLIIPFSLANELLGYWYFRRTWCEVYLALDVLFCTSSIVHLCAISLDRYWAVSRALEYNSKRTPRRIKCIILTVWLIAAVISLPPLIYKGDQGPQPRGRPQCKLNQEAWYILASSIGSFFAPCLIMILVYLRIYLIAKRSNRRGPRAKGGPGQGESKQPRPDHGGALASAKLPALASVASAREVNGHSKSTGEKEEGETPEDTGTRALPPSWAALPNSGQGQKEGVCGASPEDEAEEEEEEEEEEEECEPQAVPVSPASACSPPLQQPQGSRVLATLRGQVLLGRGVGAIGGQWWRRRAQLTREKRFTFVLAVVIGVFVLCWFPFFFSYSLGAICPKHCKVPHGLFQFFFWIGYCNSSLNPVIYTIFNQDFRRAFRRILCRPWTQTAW
TEST NAME: Adrenergic alpha2B radioligand binding ([3H]Rauwolscine)
RUN CONDITIONS: compound at 1 μM; read-out: Adrenergic (1 μM) α2B, percent inhibition of specific binding
Experimental: To evaluate in radioligand binding assays the activity of compounds of the invention, human recombinant adrenergic α2B receptor expressed in Chinese hamster ovary (CHO-K1) cells (Uhlen S et al. Eur J. Pharmacol. 343(1):93, 1998) in a modified Tris-HCl buffer (50 mM Tris-HCl, pH 7.4, 12.5 mM MgCl2, 1 mM EDTA, 0.2% BSA) was used. […] Receptor proteins were filtered and washed, the filters were then counted to determine [^3H]Rauwolscine specifically bound. […]
MEASUREMENT KIND: inhibition at 1 µM (%)

• CN1CCc2c(n(CCc3ccccc3F)c3ccc(Cl)cc23)CC1 [Compound No. 61] = 103
• CN1CCc2c(n(CC(O)c3cccnc3)c3ccc(Cl)cc23)CC1 (centres unmarked) [Compound No. 18] = 98
• Cc1ccc2c(c1)c1c(n2CC(O)c2ccccc2)CCN(C)CC1 (centres unmarked) [Compound No. 25] = 104
• Cc1cncc(CCn2c3c(c4cc(Cl)ccc42)CCN(C)CC3)c1 [Compound No. 3] = 112
• CN1CCc2c(n(CCc3cncc(Cl)c3)c3ccc(Cl)cc23)CC1 [Compound No. 10] = 101
• CN1CCc2c(n(CC(O)c3ccc(Cl)cc3)c3ccc(Cl)cc23)CC1 (centres unmarked) [Compound No. 16] = 99
• COc1ccc(C(O)Cn2c3c(c4cc(Cl)ccc42)CCN(C)CC3)c(F)c1 (centres unmarked) [Compound No. 49] = 106
• Cc1ccc2c(c1)c1c(n2CC(=O)N(C)C2CCCCC2)CCN(C)CC1 [Compound No. 232] = 39
• Cc1ccc2c(c1)c1c(n2CC(O)c2ccncc2)CCN(C)CC1 (centres unmarked) [Compound No. 43] = 107
• Cc1ccc2c(c1)c1c(n2/C=C/c2ccc(F)cc2)CCN(C)CC1 [Compound No. 39] = 105
• COc1ccc(C(O)Cn2c3c(c4cc(C)ccc42)CCN(C)CC3)c(F)c1 (centres unmarked) [Compound No. 50] = 102
• Cc1ccc(C(O)Cn2c3c(c4cc(C)ccc42)CCN(C)CC3)cc1 (centres unmarked) [Compound No. 27] = 100
• C/C(=C\n1c2c(c3cc(Cl)ccc31)CCN(C)CC2)c1ccc(Cl)cc1Cl [Compound No. 239] = 107
• Cc1ccc2c(c1)c1c(n2CC(=O)N2CCC(C)CC2)CCN(C)CC1 [Compound No. 225] = 13
